Reference source for all entries: ChEMBL document CHEMBL2086362

- target: Adenosine receptor A1 (Homo sapiens)
- assayText: Agonist activity at human A1 receptor expressed in CHO cells assessed as enhancement of R-PIA mediated ERK1/2 phosphorylation at 3 uM after 5 mins by Alpha-Screen assay
- Type: functional, cell-based
observable: Activity (%)

• Nc1scc(-c2cccc(C(F)(F)F)c2)c1C(=O)c1cccc(C(F)(F)F)c1 = 93
• Nc1scc(-c2cccc(C(F)(F)F)c2)c1C(=O)c1ccc(Cl)c(Cl)c1 = 88
• Cc1ccc(C(=O)c2c(N)sc(C)c2-c2cccc(C(F)(F)F)c2)cc1 = 86
• Cc1ccc(C(=O)c2c(-c3cccc(C(F)(F)F)c3)csc2N)cc1 = 85
• Nc1scc(-c2cc(C(F)(F)F)cc(C(F)(F)F)c2)c1C(=O)c1ccc(Cl)c(Cl)c1 = 90
• Cc1sc(N)c(C(=O)c2ccc(Cl)c(Cl)c2)c1-c1cccc(C(F)(F)F)c1 = 73
• Cc1sc(N)c(C(=O)c2ccc(Cl)cc2)c1-c1cc(C(F)(F)F)cc(C(F)(F)F)c1 = 84
• Cc1sc(N)c(C(=O)c2ccc(Cl)cc2)c1-c1cccc(C(F)(F)F)c1 = 94
• Cc1ccc(C(=O)c2c(-c3cc(C(F)(F)F)cc(C(F)(F)F)c3)csc2N)cc1 = 86
• Cc1sc(N)c(C(=O)c2ccc(Cl)c(Cl)c2)c1-c1cc(C(F)(F)F)cc(C(F)(F)F)c1 = 78
• Cc1sc(N)c(C(=O)c2cccc(C(F)(F)F)c2)c1-c1cc(C(F)(F)F)cc(C(F)(F)F)c1 = 84

###

- target: Adenosine receptor A1 (Homo sapiens)
- assayText: Agonist activity at human A1 receptor expressed in CHO cells assessed as enhancement of R-PIA mediated ERK1/2 phosphorylation at 10 uM after 5 mins by Alpha-Screen assay
- Assay type: functional, cell-based
observable: Activity (%)

- Cc1ccc(C(=O)c2c(N)sc(C)c2-c2cccc(C(F)(F)F)c2)cc1: 90
- Cc1sc(N)c(C(=O)c2cccc(C(F)(F)F)c2)c1-c1cc(C(F)(F)F)cc(C(F)(F)F)c1: 84
- Nc1scc(-c2cc(C(F)(F)F)cc(C(F)(F)F)c2)c1C(=O)c1cccc(C(F)(F)F)c1: 84
- Cc1ccc(C(=O)c2c(-c3cccc(C(F)(F)F)c3)csc2N)cc1: 83
- Cc1ccc(C(=O)c2c(-c3cc(C(F)(F)F)cc(C(F)(F)F)c3)csc2N)cc1: 87
- Cc1sc(N)c(C(=O)c2ccc(Cl)c(Cl)c2)c1-c1cc(C(F)(F)F)cc(C(F)(F)F)c1: 84
- Cc1sc(N)c(C(=O)c2cccc(C(F)(F)F)c2)c1-c1cccc(C(F)(F)F)c1: 86
- Nc1scc(-c2cc(C(F)(F)F)cc(C(F)(F)F)c2)c1C(=O)c1ccc(Cl)c(Cl)c1: 90
- Cc1ccc(C(=O)c2c(N)sc(C)c2-c2cc(C(F)(F)F)cc(C(F)(F)F)c2)cc1: 80
- Cc1sc(N)c(C(=O)c2ccc(Cl)c(Cl)c2)c1-c1cccc(C(F)(F)F)c1: 75
- Cc1sc(N)c(C(=O)c2ccc(Cl)cc2)c1-c1cccc(C(F)(F)F)c1: 94
- Nc1scc(-c2cccc(C(F)(F)F)c2)c1C(=O)c1cccc(C(F)(F)F)c1: 94
- Nc1scc(-c2cccc(C(F)(F)F)c2)c1C(=O)c1ccc(Cl)c(Cl)c1: 88
- Cc1sc(N)c(C(=O)c2ccccc2)c1-c1cccc(C(F)(F)F)c1: 73
- Cc1sc(N)c(C(=O)c2ccccc2)c1-c1cc(C(F)(F)F)cc(C(F)(F)F)c1: 95
- Cc1sc(N)c(C(=O)c2ccc(Cl)cc2)c1-c1cc(C(F)(F)F)cc(C(F)(F)F)c1: 88
